Reference source: paper PMC4869175

# Tested target: T418D AsphyA mutant (Avena sativa, UniProt P06593, T418D)
# Construct: After preparing purified full-length AsphyA mutants
# Sequence (P06593 whole entry T418D): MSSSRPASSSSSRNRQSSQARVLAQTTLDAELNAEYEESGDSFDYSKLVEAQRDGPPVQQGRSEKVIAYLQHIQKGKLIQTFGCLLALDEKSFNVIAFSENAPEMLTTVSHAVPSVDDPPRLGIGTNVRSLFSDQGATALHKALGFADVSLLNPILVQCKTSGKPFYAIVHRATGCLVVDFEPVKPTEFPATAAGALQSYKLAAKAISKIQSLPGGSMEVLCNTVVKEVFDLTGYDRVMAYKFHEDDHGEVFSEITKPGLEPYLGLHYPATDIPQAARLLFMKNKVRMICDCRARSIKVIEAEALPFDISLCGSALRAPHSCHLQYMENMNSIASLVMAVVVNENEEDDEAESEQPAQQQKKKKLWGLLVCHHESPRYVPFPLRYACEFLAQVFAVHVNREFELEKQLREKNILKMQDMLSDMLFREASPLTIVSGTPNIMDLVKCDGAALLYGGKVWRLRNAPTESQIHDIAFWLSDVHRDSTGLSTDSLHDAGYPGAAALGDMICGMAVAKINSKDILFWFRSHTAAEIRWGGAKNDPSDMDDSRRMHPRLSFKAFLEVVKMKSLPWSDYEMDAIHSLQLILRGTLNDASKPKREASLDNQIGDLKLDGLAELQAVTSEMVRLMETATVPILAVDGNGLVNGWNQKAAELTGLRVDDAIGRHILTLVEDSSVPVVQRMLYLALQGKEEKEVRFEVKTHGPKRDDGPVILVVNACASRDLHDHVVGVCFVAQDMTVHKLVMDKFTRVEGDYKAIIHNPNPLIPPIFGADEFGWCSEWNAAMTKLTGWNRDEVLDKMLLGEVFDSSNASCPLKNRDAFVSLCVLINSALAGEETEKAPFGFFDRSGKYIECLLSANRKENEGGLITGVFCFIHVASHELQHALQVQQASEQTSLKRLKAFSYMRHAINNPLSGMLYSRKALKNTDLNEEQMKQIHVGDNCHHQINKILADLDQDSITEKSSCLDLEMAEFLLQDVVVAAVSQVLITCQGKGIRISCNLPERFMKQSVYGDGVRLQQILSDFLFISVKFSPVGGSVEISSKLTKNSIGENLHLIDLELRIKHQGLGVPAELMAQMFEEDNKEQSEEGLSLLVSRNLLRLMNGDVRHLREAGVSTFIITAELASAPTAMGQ
# Assay: Binding parameters of ATP by Scatchard plot using BODIPY-FL-ATP
Endpoint label: Kd (µM)
Just the number in µM, nothing appended.

QUERY: Query (compound): Nc1ncnc2c1ncn2[C@@H]1O[C@H](COP(=O)(O)OP(=O)(O)OP(=O)(O)O)[C@@H](O)[C@H]1O [ATP] ; field requested: Kd
RESULT: 4.76

---

As shown below, each of these compounds has a reported Kd value.
# Tested target: K411L AsphyA mutant (Avena sativa, UniProt P06593, K411L)
# Construct: After preparing purified full-length AsphyA mutants
# Sequence (P06593 whole entry K411L): as the sequence (P06593 whole entry T418D) above, with K411L, D418T counted along it
# Assay: Binding parameters of ATP by Scatchard plot using BODIPY-FL-ATP
# Protocol: To estimate dissociation constant (Kd) and the number of binding sites (n) of ATP in AsphyA proteins, an ATP analogue BODIPY-FL-ATP (BODIPY FL 2′-(or-3′)-O-(N-(2-aminoethyl)urethane) adenosine triphosphate; Molecular Probes) was used. […] The spectrophotometric absorbance was then measured to determine the BODIPY-FL-ATP concentrations within flow-through and the complex solutions by using Shimadzu UV-1800 spectrophotometer. […]

| Smiles input | Tested target | Endpoint label | Reported result |
| --- | --- | --- | --- |
| CC1=CC(C)=[N+]2C1=Cc1ccc(CCC(=O)NCCNC(=O)O[C@H]3[C@@H](O)[C@H](n4cnc5c(N)ncnc54)O[C@@H]3COP(=O)(O)OP(=O)(O)OP(=O)(O)O)n1[B-]2(F)F | K411L AsphyA mutant (Avena sativa, UniProt P06593, K411L) | Kd | ~1.32 µM |

Next, consider the following compound.
QUERY: Query (compound): Nc1ncnc2c1ncn2[C@@H]1O[C@H](COP(=O)(O)OP(=O)(O)OP(=O)(O)O)[C@@H](O)[C@H]1O ; field requested: Kd
RESULT: ~1.32 µM

---

# Tested target: photosensory core of AsphyA (66-610) (Avena sativa)
# Construct: the PAS-GAF-PHY photosensory core (66–610aa) were also cloned into pPIC3.5K; made in house; host or cells: Pichia pastoris GS115
# Sequence (P06593 66-610): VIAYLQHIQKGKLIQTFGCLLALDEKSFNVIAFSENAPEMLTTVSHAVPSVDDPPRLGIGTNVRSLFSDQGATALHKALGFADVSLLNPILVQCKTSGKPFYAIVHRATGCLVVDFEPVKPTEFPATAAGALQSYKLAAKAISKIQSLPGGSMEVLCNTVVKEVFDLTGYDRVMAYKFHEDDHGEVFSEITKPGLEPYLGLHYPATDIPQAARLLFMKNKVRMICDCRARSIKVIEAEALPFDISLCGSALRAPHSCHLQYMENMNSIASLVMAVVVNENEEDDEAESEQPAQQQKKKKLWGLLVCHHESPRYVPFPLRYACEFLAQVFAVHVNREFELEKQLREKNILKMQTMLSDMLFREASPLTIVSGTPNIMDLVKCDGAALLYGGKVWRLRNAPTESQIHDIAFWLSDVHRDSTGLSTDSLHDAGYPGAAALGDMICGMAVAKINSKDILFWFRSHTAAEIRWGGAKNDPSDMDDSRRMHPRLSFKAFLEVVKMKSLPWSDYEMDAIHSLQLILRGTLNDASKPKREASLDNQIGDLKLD
# Assay: Binding parameters of ATP by Scatchard plot using BODIPY-FL-ATP
# Test conditions: as restated in Discussion; Scatchard plot with BODIPY-FL-ATP; read-out: Kd value (ATP-binding site)
# Experimental: To estimate dissociation constant (Kd) and the number of binding sites (n) of ATP in AsphyA proteins, an ATP analogue BODIPY-FL-ATP (BODIPY FL 2′-(or-3′)-O-(N-(2-aminoethyl)urethane) adenosine triphosphate; Molecular Probes) was used. […] The spectrophotometric absorbance was then measured to determine the BODIPY-FL-ATP concentrations within flow-through and the complex solutions by using Shimadzu UV-1800 spectrophotometer. […]
Endpoint label: pKd
Recall that pKd is obtained by taking minus log10 of the concentration measured in molar.

QUERY: Query (molecule): Nc1ncnc2c1ncn2[C@@H]1O[C@H](COP(=O)(O)OP(=O)(O)OP(=O)(O)O)[C@@H](O)[C@H]1O ; field requested: pKd
RESULT: 6.14

---

# Tested target: full-length AsphyA (Avena sativa, UniProt P06593)
# Construct: Full-length phytochrome genes of AsPHYA; made in house; host or cells: Pichia pastoris GS115
# Sequence (P06593 whole entry): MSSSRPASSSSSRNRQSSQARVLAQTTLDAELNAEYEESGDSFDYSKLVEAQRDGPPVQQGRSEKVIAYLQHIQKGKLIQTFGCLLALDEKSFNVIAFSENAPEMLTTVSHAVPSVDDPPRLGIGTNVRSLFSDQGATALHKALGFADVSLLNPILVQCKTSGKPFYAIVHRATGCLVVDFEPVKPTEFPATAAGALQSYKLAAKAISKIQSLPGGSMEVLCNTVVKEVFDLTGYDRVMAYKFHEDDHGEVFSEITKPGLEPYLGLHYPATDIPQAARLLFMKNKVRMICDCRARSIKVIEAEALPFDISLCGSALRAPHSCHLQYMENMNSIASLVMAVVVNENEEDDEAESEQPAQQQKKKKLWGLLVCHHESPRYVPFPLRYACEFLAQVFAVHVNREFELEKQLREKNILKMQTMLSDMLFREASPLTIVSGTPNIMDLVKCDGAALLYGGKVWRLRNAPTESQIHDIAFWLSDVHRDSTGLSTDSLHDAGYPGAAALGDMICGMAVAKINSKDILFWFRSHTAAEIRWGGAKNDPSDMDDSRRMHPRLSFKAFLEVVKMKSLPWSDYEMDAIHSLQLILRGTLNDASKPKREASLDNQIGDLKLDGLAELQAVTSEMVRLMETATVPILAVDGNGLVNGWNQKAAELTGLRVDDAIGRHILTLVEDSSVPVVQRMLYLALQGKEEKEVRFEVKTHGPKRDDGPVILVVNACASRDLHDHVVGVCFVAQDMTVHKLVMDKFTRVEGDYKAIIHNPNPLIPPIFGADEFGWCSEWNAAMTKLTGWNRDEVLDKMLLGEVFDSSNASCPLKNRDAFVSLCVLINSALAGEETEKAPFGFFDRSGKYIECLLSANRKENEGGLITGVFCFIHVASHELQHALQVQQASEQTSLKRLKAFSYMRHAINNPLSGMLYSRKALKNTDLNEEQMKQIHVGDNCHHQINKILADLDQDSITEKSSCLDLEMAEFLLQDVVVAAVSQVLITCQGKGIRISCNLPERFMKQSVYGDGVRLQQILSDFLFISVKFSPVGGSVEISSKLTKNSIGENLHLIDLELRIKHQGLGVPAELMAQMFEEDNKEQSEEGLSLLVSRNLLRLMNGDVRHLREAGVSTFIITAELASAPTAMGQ
# Assay: Binding parameters of ATP by Scatchard plot using BODIPY-FL-ATP
# Test conditions: Scatchard plot; 0.5 μM protein, BODIPY-FL-ATP 0.5–5 μM, 10 min at 30 °C; read-out: dissociation constant (Kd) of ATP
Endpoint label: Kd

QUERY: Query (compound): CC1=CC(C)=[N+]2C1=Cc1ccc(CCC(=O)NCCNC(=O)O[C@H]3[C@@H](O)[C@H](n4cnc5c(N)ncnc54)O[C@@H]3COP(=O)(O)OP(=O)(O)OP(=O)(O)O)n1[B-]2(F)F ; field requested: Kd
RESULT: ~870 nM

---

# Tested target: full-length AsphyA (Avena sativa)
# Construct: Full-length phytochrome genes of AsPHYA; made in house; host or cells: Pichia pastoris GS115
# Assay: Binding parameters of ATP by Scatchard plot using BODIPY-FL-ATP
# Test conditions: as restated in Discussion; Scatchard plot with BODIPY-FL-ATP; read-out: Kd value (ATP-binding site)
# Protocol: To estimate dissociation constant (Kd) and the number of binding sites (n) of ATP in AsphyA proteins, an ATP analogue BODIPY-FL-ATP (BODIPY FL 2′-(or-3′)-O-(N-(2-aminoethyl)urethane) adenosine triphosphate; Molecular Probes) was used. […] The spectrophotometric absorbance was then measured to determine the BODIPY-FL-ATP concentrations within flow-through and the complex solutions by using Shimadzu UV-1800 spectrophotometer. […]
Endpoint label: pKd
Recall that pKd is obtained by taking minus log10 of the concentration measured in molar.

QUERY: Query for full-length AsphyA (Avena sativa): what pKd does the record show for Nc1ncnc2c1ncn2[C@@H]1O[C@H](COP(=O)(O)OP(=O)(O)OP(=O)(O)O)[C@@H](O)[C@H]1O [ATP] ?
RESULT: 6.06
